Study System: UniProt:P14902
Sequence (P14902 whole entry): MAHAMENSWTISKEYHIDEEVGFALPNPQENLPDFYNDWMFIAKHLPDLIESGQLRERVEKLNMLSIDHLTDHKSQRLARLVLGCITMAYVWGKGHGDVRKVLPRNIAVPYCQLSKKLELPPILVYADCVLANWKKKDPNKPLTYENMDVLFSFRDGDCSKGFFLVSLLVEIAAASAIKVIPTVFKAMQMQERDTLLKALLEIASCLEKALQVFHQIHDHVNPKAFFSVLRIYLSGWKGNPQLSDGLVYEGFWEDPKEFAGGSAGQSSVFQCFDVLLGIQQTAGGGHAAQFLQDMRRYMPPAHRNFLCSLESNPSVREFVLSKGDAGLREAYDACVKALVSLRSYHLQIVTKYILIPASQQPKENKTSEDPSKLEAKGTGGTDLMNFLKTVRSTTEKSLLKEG
Measurement Protocol: IDO1 Human Whole blood Assay
Assay type: cell-based
Set-up: Human whole blood was drawn in sodium heparin coated tubes from healthy internal donors; from tissue; host or cells: human whole blood from healthy donors, stimulated with LPS and IFNγ
Protocol Conditions: LPS and IFNγ stimulated, 18 h, read-out: Human Whole Blood Potency, IC50
Protocol: IDO1Human Whole blood Assay Compounds to be tested were serially diluted in ten 3-fold steps in DMSO starting from 10 mM. […] On day 2, isotope labeled standard solutions of kynurenine and tryptophan was made in water at 10× concentration and 30 μL was added to the blood at 3 μM final concentration. […] 20 μL of supernatant was carefully transferred to a 384 well plate containing 40 μL of 0.1% formic acid in water and analyzed by LC/MS/MS. […]
Let's look at some compounds and their measured IC50.
Report the figure along with its unit, number first.

Sample answers from the record:
Compound: Cc1c(F)ccc(N2CCN(C(=O)Cn3nc(C(=O)N4CCC(O)CC4(C)C)c4c3CCCC4)CC2)c1C (stereo not drawn) [Example 464]
IC50: 135 nM
//
Compound: COCCN1[C@H](C)CN(C(=O)c2nn(CC(=O)N3CCN(c4cccc(C)c4C)CC3)c3c2CCC3)C[C@@H]1C [Example 172]
IC50: 1240 nM
//
Compound: Cc1cccc(N2CCN(C(=O)Cn3nc(C(=O)N4CCN5CCOC[C@H]5C4)c4c3CCC4)CC2)c1C [Example 173]
IC50: 1670 nM
//
Compound: Cc1cccc(N2CCN(C(=O)Cn3nc(C(=O)N4CCC(CCO)CC4)c4c3CCC4)CC2)c1C [Example 160]
IC50: 209 nM
//
Compound: Cc1c(F)ccc(N2CCN(C(=O)Cn3nc(C(=O)N4CCC(OCCO)CC4)c4c3C[C@H]3C[C@@H]43)C3(CC3)C2)c1C [Example 321]
IC50: 508 nM

Let's switch to this compound now.
Recorded IC50 (compound Cc1cccc(N2CCN(C(=O)Cn3nc(C(=O)N4CCC5(CC4)COCC5O)c4c3CCC4)CC2)c1C (stereo not drawn) [Example 181] ): 125 nM
